subject of test: M1 mAChR (M1/CHO cells) (Rattus norvegicus)
Sequence (P08482 whole entry): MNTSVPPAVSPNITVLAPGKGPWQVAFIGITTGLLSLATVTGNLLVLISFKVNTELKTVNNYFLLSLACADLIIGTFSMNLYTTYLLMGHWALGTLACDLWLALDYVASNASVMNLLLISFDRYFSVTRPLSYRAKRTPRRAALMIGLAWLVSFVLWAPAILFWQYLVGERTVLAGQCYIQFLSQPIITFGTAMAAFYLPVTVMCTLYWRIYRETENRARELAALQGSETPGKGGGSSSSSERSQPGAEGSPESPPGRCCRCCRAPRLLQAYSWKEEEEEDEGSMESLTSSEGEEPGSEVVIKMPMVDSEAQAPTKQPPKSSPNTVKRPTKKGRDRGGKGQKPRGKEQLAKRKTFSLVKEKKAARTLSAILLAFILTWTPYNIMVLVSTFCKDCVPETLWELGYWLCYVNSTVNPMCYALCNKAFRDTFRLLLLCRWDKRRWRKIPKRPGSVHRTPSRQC
test method notes: functional cell-based calcium-mobilization assay, M1/CHO cell line
experimental context: read-out: M1 IC50
pIC50: −log10 of the molar value.
recorded endpoint: pIC50

smiles_input=O=C(CCNS(=O)(=O)c1cccc2nsnc12)N1CCN(c2ccncc2)CC1 recorded_endpoint=pIC50 observed_measurement=6.89
